Origin of measurements: PubChem BioAssay AID330

system: P388 leukemia ip, CD2F1 mice, survival T/C; test: NCI In Vivo Anticancer Drug Screen. Data for tumor model P388 Leukemia (intraperitoneal) in CD2F1 (CDF1) mice; conditions: endpoint: median survival time; dose: 200.0 mg/kg/injection; schedule: Q01DX005 (ip); vehicle: saline; higher = longer survival
Toxic doses and inconclusive results are not listed. Peptide text beside a SMILES is read from it.
The reader will find reported T/C values listed item by item below.

Before answering, review these 2 worked examples.
CC(=O)Nc1ccc(S(=O)(=O)NC2C(O)OC(CO)C(O)C2O)cc1 (centres undefined)
97 % of control
CCOC(=O)C(CCC[n+]1cc2ccccc2c2ccccc21)C(=O)OCC
101 % of control

Q) Param item = CC(C)CC(N)C(=O)NC(C)C(=O)NC(CC(C)C)C(=O)O (stereo not drawn) (H-Leu-Ala-Leu-OH; configuration not given here) ; retrieve measured T/C.
A) 100 % of control

Q) Param item = "CCCCCCCCSCCN(CC)CC" ; retrieve measured T/C.
A) 95 % of control

---

system: P388 leukemia ip, CD2F1 mice, survival T/C; assay: NCI In Vivo Anticancer Drug Screen. Data for tumor model P388 Leukemia (intraperitoneal) in CD2F1 (CDF1) mice; settings: endpoint: median survival time; dose: 50.0 mg/kg/injection; schedule: Q01DX009 (ip); vehicle: Klucel (hydroxypropylcellulose) (HPC); higher = longer survival
Toxic doses and inconclusive results are not listed.
The reader will find reported T/C values listed item by item below.

CCC1CN2CCc3cc(OC)c(OC)cc3C2C(C2(O)C(=O)Nc3ccccc32)C1=O (centres undefined)
99 % of control

Q) Param item = "CC(=O)N1CCc2cc([N+](=O)[O-])ccc21" ; retrieve measured T/C.
A) 99 % of control

Q) Param item = "O=C1CSC(=S)N1N1C(=O)CSC1=S" ; retrieve measured T/C.
A) 107 % of control

Q) Param item = Ic1ccc(C2CC(c3ccccc3)=NN2c2ccccc2)cc1 (centres undefined) ; retrieve measured T/C.
A) 87 % of control

---

tested on: P388 leukemia ip, CD2F1 mice, survival T/C; experiment: NCI In Vivo Anticancer Drug Screen. Data for tumor model P388 Leukemia (intraperitoneal) in CD2F1 (CDF1) mice; conditions: endpoint: median survival time; dose: 100.0 mg/kg/injection; schedule: Q01DX009 (ip); vehicle: saline with Tween-80
Inconclusive results and toxic doses are left out. Rule for the calls: active = survival T/C of 150% or more; inactive = T/C below 125% in these data.
// classify into active, inactive

COc1cc2c(cc1OC(C)=O)C(=O)C(Br)(Br)CCC2
inactive
CC1=C2C(=O)[C@H]3[C@@H](CC=C4C[C@@H](O)CC[C@@]43C)[C@@H]2CC[C@]12O[C@@H]1C[C@H](C)CN[C@H]1[C@H]2C
inactive
CN(C)C1CCc2ccccc2C1OC(=O)c1ccccc1 (stereo unspecified)
inactive
CCCCC(=O)N1C(=O)/C(=C\N(C)C)c2cc(C=O)ccc21
inactive
CCOC(=O)NC(C)(C)CN(C(=O)OCC)c1ccccc1
inactive
Nc1nc(N)c2[nH]cnc2n1
inactive
COC(=O)c1ccccc1NC(Cc1ccccc1)=NC(C)(C)C
inactive
O=c1sc2ccccc2n1CCCl
inactive

Q) Lab log entry: O=c1cnn2c(n1)OC1C(O)C(CO)OC12 (stereo unspecified) — outcome as called in the assay?
A) inactive

Q) Lab log entry: "C/C(=N/NC(=O)c1ccccc1)c1ccccc1O" — outcome as called in the assay?
A) inactive

Q) Lab log entry: "CC(C)N(C(=O)C1CCN(Cc2c[nH]c3ccccc23)CC1)C(C)C" — outcome as called in the assay?
A) inactive

Q) Lab log entry: CC1Cn2c(c(-c3ccccc3)c(=O)[nH]c2=S)O1 (stereo unspecified) — outcome as called in the assay?
A) inactive

Q) Lab log entry: "O=C(N=Cc1ccco1)C(=O)Nc1ccc(Cl)c([N+](=O)[O-])c1" — outcome as called in the assay?
A) inactive

Q) Lab log entry: CN(C)C12CCCCCC1S(=O)(=O)C2 (stereo unspecified) — outcome as called in the assay?
A) inactive

Q) Lab log entry: "Cn1c2cc(Cl)c(Cl)cc2nc2cc3c(cc21)c(Cl)c(=O)c1ccccc13" — outcome as called in the assay?
A) inactive

---

system: P388 leukemia ip, CD2F1 mice, survival T/C; assay: NCI In Vivo Anticancer Drug Screen. Data for tumor model P388 Leukemia (intraperitoneal) in CD2F1 (CDF1) mice; settings: endpoint: median survival time; dose: 100.0 mg/kg/injection; schedule: Q01DX009 (ip); vehicle: saline with Tween-80; higher = longer survival
Inconclusive results and toxic doses are left out.
The reader will find reported T/C values listed item by item below.

Before answering, review these 10 worked examples.
O=C1NC(=O)C2(CCCc3c([N+](=O)[O-])cccc32)N1 (stereo unspecified)
93 % of control
CN(C)C1CCc2ccccc2C1OC(=O)/C=C/c1ccccc1 (stereo unspecified)
111 % of control
N#CCCC1(CCC#N)CCCC(CCC#N)(CCC#N)C1=O
99 % of control
CN(CO)c1nc(N(C)CO)nc(N(C)CO)n1
151 % of control
COc1cc(C(=O)N/N=C/c2cccc3ccccc23)ccc1O
90 % of control
O=C(NC(CSSCC(NC(=O)c1ccccc1)C(=O)O)C(=O)O)c1ccccc1 (stereo unspecified)
90 % of control
N#CCC1(c2ccccc2)CCCCC1
107 % of control
COc1cc(/C=N/NC(=O)c2cccs2)cc(OC)c1OC
95 % of control
NC(=S)Oc1ccccc1
93 % of control
O=[N+]([O-])CC(OCCCCCO)C(Cl)(Cl)Cl (stereo unspecified)
100 % of control

Q) Observed T/C on P388 leukemia ip, CD2F1 mice, survival T/C for "CC(C)Nc1nc(N)nc(N)n1" , please.
A) 91 % of control

Q) Observed T/C on P388 leukemia ip, CD2F1 mice, survival T/C for "O=c1nc(-c2ccccc2)c(-c2ccccc2)n[nH]1" , please.
A) 100 % of control

Q) Observed T/C on P388 leukemia ip, CD2F1 mice, survival T/C for "COC1(OC)C2C=CC1CC2" , please.
A) 101 % of control

Q) Observed T/C on P388 leukemia ip, CD2F1 mice, survival T/C for "NC(=O)C(Cl)(Cl)Cl" , please.
A) 100 % of control

Q) Observed T/C on P388 leukemia ip, CD2F1 mice, survival T/C for "Cc1ccc(S(=O)(=O)Cl)cc1Cl" , please.
A) 101 % of control

Q) Observed T/C on P388 leukemia ip, CD2F1 mice, survival T/C for "CCCCOC(=O)/C=C(\Cl)C(=O)OCCCC" , please.
A) 86 % of control
